These measurements were taken from PubChem BioAssay (NCI).

System: NCI/ADR-RES ovarian
Assay: NCI-60 one-dose screen, 48 h (100 = growth as untreated, 0 = no growth, -100 = all killed)
Details: 10 µM unless noted
Compounds without any hit were thinned out: in the full panel of roughly 83,000, 20% have a hit.
Below is a list of entries, each paired with its recorded growth value.
Record the value in %, omitting the unit from your answer.

| molecule | value-kind | unit-of-measure | observed-result |
| --- | --- | --- | --- |
| Cc1cccc2c(=O)c3c(sc12)c(NCCCNCCO)nc1ccccc13 | growth | % | 60.5 |
| O=C(c1nc2ccccc2[nH]1)C1[C@@H](c2cccc(O)c2)C2CC3CCCCC3N2[C@@]12C(=O)Nc1cc(Cl)ccc12 (stereo not given in full) | growth | % | 85.2 |
| O=c1oc2ccc(F)cc2c(=O)n1-c1ccc(Br)cc1F | growth | % | 6.34 |
| O=C(Nc1ccc(Br)cc1F)c1cc(F)ccc1O | growth | % | 9.89 |
| CCOC(=O)c1sc(-c2ccc(OS(=O)(=O)c3ccc(Br)s3)c(C=O)c2)nc1C | growth | % | -8.08 |
| Nc1ccc(C2c3ccccc3Oc3ccccc32)cc1 | growth | % | 100 |

Lookup: Recall the recorded growth for COc1ccc(-c2cn[nH]c2-c2cc(OC)c(OC)c(OC)c2)cc1OCc1ccccc1 with NCI/ADR-RES ovarian and state it.
Found: -22.2

---

Tested on: LOX IMVI melanoma
Test: NCI-60 one-dose screen, 48 h
Details: 10 µM unless noted
Protocol: Growth inhibition of the LOX IMVI human tumor cell line is measured as a screen for anti-cancer activity. Cells are grown in 96 well plates and exposed to the test compound for 48 hours. Compounds are tested at a single concentration, which is 10^-5 M for most compounds. The reported endpoint is percent growth (GI% or GIPRCNT), where numbers from 0 - 100% represent growth inhibition, and numbers from -100% - 0 represent cell death. For example, a value of 40 represents 60% growth inhibition. […]
About 83,000 compounds went through this panel and 20% of them were active in at least one assay; those are over-represented in the sample as a whole. Active and inactive are the calls of the source. The calls were made as follows: active = growth percent below 10; inactive = the rest.
Classes to choose from: yes (1) (active), no (0) (inactive)

Record excerpt, results attached:
| molecule | test-system | group-label |
| --- | --- | --- |
| COc1ccc(-n2c(C(O)c3ccccc3)nn(CN3CCOCC3)c2=S)cc1 (stereo not given) | LOX IMVI melanoma | no (0) |
| CCOC(=O)c1sc(-c2ccc(OS(=O)(=O)c3ccc(Br)s3)c(C=O)c2)nc1C | LOX IMVI melanoma | yes (1) |
| Cn1cc([C@@H]2Nc3ccc4[nH]ncc4c3[C@H]3[C@H]4CCC(C4)[C@H]32)c(C(F)(F)F)n1 | LOX IMVI melanoma | no (0) |
| COc1cc(C2C(C#N)=C(N)OC3=C2C(=O)c2ccccc2C3=O)cc(OC)c1O (stereo not given) | LOX IMVI melanoma | no (0) |

Lookup: Recorded call for O=C1/C=C/[C@@H](O)[C@@H]2C[C@@H](O)C[C@H]2/C=C/CCCCO1 ?
Found: yes (1)

Lookup: Recorded call for Cc1cccc(NC(=O)c2sc3nc4c(cc3c2N)CCCC4)c1C ?
Found: no (0)

Lookup: Recorded call for CC(=O)SC1CC(=O)C=C2CCC3C4CCC(=O)OC4(C)CCC3C21C (stereo not given) ?
Found: no (0)

Lookup: Recorded call for COc1ccc(/C=C2\NC(=O)NC2=O)cc1O ?
Found: no (0)

Lookup: Recorded call for CCCN1C(=O)N(CCC)C2C1NN=c1s/c(=C3\C(=O)N(C(C)C)c4ccccc43)c(=O)n12 (stereo not given) ?
Found: no (0)

Lookup: Recorded call for O=C(/C=C/c1ccccc1)c1ccc(Nc2nc(NCCO)nc(Nc3ccc(Cl)cc3)n2)cc1 ?
Found: no (0)
